Hey, just so you know, these numbers are from PubChem BioAssay (NCI).

Parameter: TGI. Scope: all listed entries.
- Test system: TK-10 renal
- methodNotes: NCI tumour cell line growth inhibition, 48 h
quantityName: TGI

[[record]]
compound = "O=C1O[C@H]2C3C4CCC(C4[C@@H]2I)[C@H]13 (stereo partly drawn)"
valueobserved = "> 100 µM"

[[record]]
compound = "CCOc1cc2c(=O)oc3c(OC)ccc4ccc(c1OC)c2c43"
valueobserved = "> 100 µM"

[[record]]
compound = "CCOC(=O)Cn1c(-c2nonc2NC(=O)c2ccccc2F)nc2ccccc21"
valueobserved = "> 82.7 µM"


###

- Test system: RXF 393 renal
- methodNotes: NCI tumour cell line growth inhibition, 48 h
// values below are reported TGI
quantityName: TGI (µM)

[[record]]
compound = "CC(=O)c1ccc2c3c1O[C@H]1c4[nH]c5ccccc5c4C[C@@]4(O)[C@@H](C2)N(CC2CC2)CC[C@]314"
testedon = "RXF 393 renal"
quantityname = "TGI"
unitname = "µM"
boundoperator = "="
valueobserved = 27.3

[[record]]
compound = "OC1(c2ccc(Cl)cc2)c2c(c3ccccc3c3ccccc23)C2=NCCN21 (configuration not stated)"
testedon = "RXF 393 renal"
quantityname = "TGI"
unitname = "µM"
boundoperator = "="
valueobserved = 24.7

[[record]]
compound = "O=C(/C=C/c1ccccc1)Oc1cccc(Br)c1"
testedon = "RXF 393 renal"
quantityname = "TGI"
unitname = "µM"
boundoperator = ">"
valueobserved = 100

[[record]]
compound = "COc1ccc(-c2nc(-c3cnccn3)n(Cc3ccccc3)n2)cc1"
testedon = "RXF 393 renal"
quantityname = "TGI"
unitname = "µM"
boundoperator = ">"
valueobserved = 100

[[record]]
compound = "O=C(NN1C(=O)C(Cl)C1c1ccccc1Cl)c1ccccc1O (configuration not stated)"
testedon = "RXF 393 renal"
quantityname = "TGI"
unitname = "µM"
boundoperator = "="
valueobserved = 88.2

[[record]]
compound = "CC1=CC(=O)/C(=C/n2c(=S)[nH]c3cc(C)ccc32)C(=O)O1"
testedon = "RXF 393 renal"
quantityname = "TGI"
unitname = "µM"
boundoperator = ">"
valueobserved = 100

[[record]]
compound = "O=S1c2ccccc2NC(c2ccc3ccccc3c2)CC1c1ccccc1 (configuration not stated)"
testedon = "RXF 393 renal"
quantityname = "TGI"
unitname = "µM"
boundoperator = "="
valueobserved = 30.5


###

- System: HT29 colon
- methodNotes: NCI tumour cell line growth inhibition, 48 h
# reported TGI; entries follow
quantityName: TGI

[[record]]
molecule = "Nc1ccccc1OCCCOc1ccccc1N"
quantityname = "TGI"
valueobserved = "> 100 µM"

[[record]]
molecule = "CC1C(C#N)(C#N)C(C#N)=C(N)C1(C)[N+](=O)[O-] (stereo not given)"
quantityname = "TGI"
valueobserved = "> 100 µM"

[[record]]
molecule = "N#CCc1nc2cc(C(F)(F)F)ccc2s1"
quantityname = "TGI"
valueobserved = "> 100 µM"

[[record]]
molecule = "O=C(Nc1ccc(Oc2ccc(NC(=O)Nc3ccc([N+](=O)[O-])cc3)cc2)cc1)Nc1ccc([N+](=O)[O-])cc1"
quantityname = "TGI"
valueobserved = "15.9 µM"

[[record]]
molecule = "O=S1c2ccccc2NC(c2ccc3ccccc3c2)CC1c1ccccc1 (stereo not given)"
quantityname = "TGI"
valueobserved = "49.6 µM"


###

- System: HOP-62 NSCLC
- methodNotes: NCI tumour cell line growth inhibition, 48 h
quantityName: TGI

[[record]]
compound = "CCCCCCCCCCC[C@@H](C[C@H]1OC(=O)[C@H]1CCCCCC)OC(=O)[C@@H](CC(C)C)NC=O"
valueobserved = "29.5 µM"

[[record]]
compound = "CN(C)C=NCC(O)c1ccccc1 (stereo not drawn)"
valueobserved = "> 100 µM"

[[record]]
compound = "OC1(c2ccc(Cl)cc2)c2c(c3ccccc3c3ccccc23)C2=NCCN21 (stereo not drawn)"
valueobserved = "24.2 µM"

[[record]]
compound = "CCOC(=O)c1ccccc1SC(C[N+](=O)[O-])c1ccccc1 (stereo not drawn)"
valueobserved = "32.1 µM"

[[record]]
compound = "COc1ccc2c(c1)C(=O)c1c-2c(N2CCN(C(=O)CNCCN(C)C)CC2)nc2ccccc12"
valueobserved = "4.18 µM"

[[record]]
compound = "CC(=O)OCCOCNC(=S)N/N=C(\\C)c1cccs1"
valueobserved = "> 100 µM"

[[record]]
compound = "N#Cc1ccc(C2Oc3ccc(Cl)cc3C=C2[N+](=O)[O-])cc1 (stereo not drawn)"
valueobserved = "3.8 µM"

[[record]]
compound = "CC(C)C[CH2][Ge]([CH2]CC(C)C)([CH2]CC(C)C)[CH2]CC(C)C"
valueobserved = "> 100 µM"

[[record]]
compound = "COc1cc(O)cc(O)c1C(=O)CC(Cl)(Cl)Cl"
valueobserved = "> 100 µM"

[[record]]
compound = "O=C(/C=C/c1ccccc1)Oc1cccc(Br)c1"
valueobserved = "> 100 µM"

[[record]]
compound = "COc1ccc(-c2nc(-c3ccccn3)c(-c3ccccn3)n2CC(C)C)cc1OC1CCCC1"
valueobserved = "> 165 µM"

[[record]]
compound = "COc1cc([C@@H]2c3cc4c(cc3[C@@H](c3c(O)cc(O)c5c3O[C@H](c3ccc(O)c(O)c3)[C@H](OC(=O)c3cc(O)c(O)c(O)c3)C5)[C@H]3COC(=O)[C@H]23)OCO4)cc(OC)c1O"
valueobserved = "> 100 µM"

[[record]]
compound = "C[C@]12CC[C@H](O)CC1=CC[C@@H]1[C@@H]2CC[C@]2(C)C(=O)/C(=C/c3ccc([N+](=O)[O-])cc3)C[C@@H]12"
valueobserved = "17 µM"

[[record]]
compound = "Clc1ccc2nc(Cl)c3ccccc3c2c1"
valueobserved = "64.2 µM"

[[record]]
compound = "C[C@@]12C[C@@H](c3ccccc3O1)N1Cc3ccccc3CSC1=N2"
valueobserved = "> 100 µM"

[[record]]
compound = "O=C1CC(C(COCc2ccccc2)OCc2ccccc2)CC(=O)N1 (stereo not drawn)"
valueobserved = "> 100 µM"

[[record]]
compound = "O=C1CCSC(=S)N1c1ccc(Br)c(Cl)c1"
valueobserved = "> 100 µM"

[[record]]
compound = "N#Cc1ccc2[nH]c3c(c2c1)CC(=O)Nc1ccccc1-3"
valueobserved = "> 100 µM"


###

The following compounds are listed with their measured TGI values.
- System: OVCAR-4 ovarian
- methodNotes: NCI tumour cell line growth inhibition, 48 h
quantityName: TGI

[[record]]
compound = "CC(C)CN1CC(C)C(=O)NC1=O (stereo unspecified)"
testedon = "OVCAR-4 ovarian"
quantityname = "TGI"
valueobserved = "> 100 µM"

[[record]]
compound = "Cc1ccc2c(=O)cc(Cc3csc4ccccc34)[nH]c2n1"
testedon = "OVCAR-4 ovarian"
quantityname = "TGI"
valueobserved = "91.4 µM"

[[record]]
compound = "O=C1CC(c2ccsc2)c2snc(-c3ccc(Cl)cc3)c2N1 (stereo unspecified)"
testedon = "OVCAR-4 ovarian"
quantityname = "TGI"
valueobserved = "> 100 µM"

[[record]]
compound = "CCOc1ccc(NCC2CC/C(=C\\c3ccc(Cl)cc3)C2=O)cc1 (stereo unspecified)"
testedon = "OVCAR-4 ovarian"
quantityname = "TGI"
valueobserved = "> 75.3 µM"

[[record]]
compound = "Nc1nccc2c1ccn2-c1cccc(NC(=O)c2ccc(N3CCOCC3)c(C(F)(F)F)c2)c1"
testedon = "OVCAR-4 ovarian"
quantityname = "TGI"
valueobserved = "> 36.1 µM"

[[record]]
compound = "CC1=NN(C(=O)Cc2ccccc2)C(=O)/C1=C\\c1ccccc1O"
testedon = "OVCAR-4 ovarian"
quantityname = "TGI"
valueobserved = "> 100 µM"

[[record]]
compound = "COc1ccc(/C=C\\c2cc(OC)c(OC)c(OC)c2)cc1OCC(=O)Nc1nc2ccccc2s1"
testedon = "OVCAR-4 ovarian"
quantityname = "TGI"
valueobserved = "> 100 µM"

[[record]]
compound = "O=C(Nc1ccc(Sc2ccc(N=Nc3c(O)c(S(=O)(=O)O)cc4cc(S(=O)(=O)O)ccc34)cc2)cc1)c1ccc(N=Nc2c(O)c(S(=O)(=O)O)cc3cc(S(=O)(=O)O)ccc23)cc1"
testedon = "OVCAR-4 ovarian"
quantityname = "TGI"
valueobserved = "> 100 µM"

[[record]]
compound = "CN(/N=C/c1ccc(Cl)cc1)C1=NCCCCN1"
testedon = "OVCAR-4 ovarian"
quantityname = "TGI"
valueobserved = "> 100 µM"

[[record]]
compound = "Cc1ccc(N=C2SC(=NN(C)C)SC2=Nc2ccc(C)cc2)cc1"
testedon = "OVCAR-4 ovarian"
quantityname = "TGI"
valueobserved = "> 100 µM"

[[record]]
compound = "COc1ccc(Cn2c3ccc([N+](=O)[O-])cc3c(=O)n2Cc2ccccn2)cc1"
testedon = "OVCAR-4 ovarian"
quantityname = "TGI"
valueobserved = "> 100 µM"


###

A collection of compounds and their measured TGI
- System: MALME-3M melanoma
- methodNotes: NCI tumour cell line growth inhibition, 48 h
quantityName: TGI

[[record]]
compound = "CCOC(=O)Cn1c(-c2nonc2NC(=O)c2ccccc2F)nc2ccccc21"
quantityname = "TGI"
valueobserved = "> 87 µM"

[[record]]
compound = "NCCS(=O)(=O)O"
quantityname = "TGI"
valueobserved = "> 100 µM"

[[record]]
compound = "O=C1/C(=C/c2ccc(Cl)cc2)CN(C(=O)CCN2CCC(=NO)CC2)C/C1=C\\c1ccc(Cl)cc1"
quantityname = "TGI"
valueobserved = "3.12 µM"

[[record]]
compound = "COc1cc(C(O)C(=O)c2cnc3cc([N+](=O)[O-])ccc3n2)ccc1O (centres undefined)"
quantityname = "TGI"
valueobserved = "> 100 µM"

[[record]]
compound = "O=C(/C=C/c1ccccc1O)c1cccc2ccccc12"
quantityname = "TGI"
valueobserved = "> 100 µM"

[[record]]
compound = "CN(C)C(=S)/N=c1\\ss/c(=N\\C(=S)N(C)C)n1Cc1ccco1"
quantityname = "TGI"
valueobserved = "> 100 µM"

[[record]]
compound = "O=C1O[C@H]2C3C4CCC(C4[C@@H]2I)[C@H]13 (some centres undefined)"
quantityname = "TGI"
valueobserved = "> 100 µM"

[[record]]
compound = "Cc1cccc(C(C)C)c1NC(=O)CCl"
quantityname = "TGI"
valueobserved = "> 100 µM"

[[record]]
compound = "CC(=O)OCCOCNC(=S)N/N=C(\\C)c1cccs1"
quantityname = "TGI"
valueobserved = "> 100 µM"

